Reported T/C by item:
- System: L1210 leukemia ip in BDF1 mice, survival T/C
- protocolDetails: NCI In Vivo Anticancer Drug Screen. Data for tumor model L1210 Leukemia (intraperitoneal) in B6D2F1 (BDF1) mice
- measurementConditions: endpoint: mean survival time; dose: 200.0 mg/kg/injection; schedule: Q01DX009 (ip); vehicle: Klucel (hydroxypropylcellulose) (HPC); higher = longer survival
Toxic doses and inconclusive results are not listed.

Sample answers from the record:
Value lookup for T/C; key = NC(C(=O)O)c1ccccc1Cl (stereo not drawn)
107 % of control

// T/C lookup, key: CCC(C)(C)c1cccc2ccccc12
100 % of control

New cases:
What value of measured T/C is listed for O=C(O)CCCCOc1ccc([N+](=O)[O-])cc1Cl ?
103 % of control

Request the reported T/C associated with Cc1c(C)c(CC#N)c(C)c(C)c1CC#N
88 % of control

Endpoint output: T/C of COC(=O)C1C=CCC2C(=O)C=C(C)C(=O)C12C (stereo not drawn) . Value?
92 % of control

Which T/C is reported for this compound? c1cc[n+](CC[n+]2ccccc2)cc1
103 % of control

Need T/C, item [Cl][Ge]([c]1ccccc1)([c]1ccccc1)[c]1ccccc1
102 % of control

I would be grateful if you could share the reported T/C for Cc1ccc(NC(=O)c2c(Cl)c(Cl)c(Cl)c(Cl)c2C(=O)O)cc1Cl .
98 % of control

# get_value(readout='T/C', item= CC(=O)Nc1ccccc1C(=O)C(N)=O )
96 % of control

I have this compound here, O=C(Nc1ccc(F)cc1)Nc1cccc(C(F)(F)F)c1 , and I need its recorded T/C.
92 % of control

Reference source: PubChem BioAssay AID248
